Biological target: D(2) dopamine receptor (Rattus norvegicus, UniProt P61169)
Sequence (P61169 whole entry): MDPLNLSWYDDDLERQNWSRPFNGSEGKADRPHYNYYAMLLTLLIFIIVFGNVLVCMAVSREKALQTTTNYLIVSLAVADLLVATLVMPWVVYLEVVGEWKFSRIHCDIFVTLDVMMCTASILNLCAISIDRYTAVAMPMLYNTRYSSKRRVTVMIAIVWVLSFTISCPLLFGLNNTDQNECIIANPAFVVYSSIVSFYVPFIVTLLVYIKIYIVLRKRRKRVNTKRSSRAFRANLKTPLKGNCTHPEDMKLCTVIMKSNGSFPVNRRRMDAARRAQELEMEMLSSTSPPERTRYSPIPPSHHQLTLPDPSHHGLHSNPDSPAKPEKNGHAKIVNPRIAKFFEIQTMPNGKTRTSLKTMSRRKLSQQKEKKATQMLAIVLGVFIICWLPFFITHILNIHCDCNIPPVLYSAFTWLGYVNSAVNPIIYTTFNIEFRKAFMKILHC
Assay: Binding affinity in radioreceptor binding assay by using [3H]5-HT radioligand against Dopamine receptor D2
measure_name: Ki (nM)
Answers are plain numbers, in nM.

Prompt line: For the molecule shown here, "FC(F)(F)c1cccc(N2CCNCC2)c1" , give the reported Ki.
Response line: 530

----------
Target: 5-hydroxytryptamine receptor 1B (Rattus norvegicus, UniProt P28564)
Sequence (P28564 whole entry): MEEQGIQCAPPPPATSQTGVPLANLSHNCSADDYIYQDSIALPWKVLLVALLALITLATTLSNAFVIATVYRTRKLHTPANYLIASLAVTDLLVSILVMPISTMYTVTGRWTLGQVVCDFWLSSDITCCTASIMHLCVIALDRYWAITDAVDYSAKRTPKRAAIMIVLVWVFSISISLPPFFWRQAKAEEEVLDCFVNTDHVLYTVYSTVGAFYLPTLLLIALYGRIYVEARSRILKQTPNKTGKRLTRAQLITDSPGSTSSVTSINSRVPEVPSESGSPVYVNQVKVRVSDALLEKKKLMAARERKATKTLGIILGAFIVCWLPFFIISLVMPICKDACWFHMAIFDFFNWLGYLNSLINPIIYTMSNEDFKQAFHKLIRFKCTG
Assay: Binding affinity in radioreceptor binding assay by using [3H]5-HT radioligand against 5-hydroxytryptamine 1B receptor
measure_name: Ki (nM)
One number for each entry, in nM.

Prompt line: Report Ki for "FC(F)(F)c1cccc(N2CCNCC2)c1" please.
Response line: 2.25

----------
Can you tell me Ki for the items I'm about to list?
Biological target: Serotonin 1 (5-HT1) receptor (Rattus norvegicus, UniProt P28564+P30940+P19327+P28565)
Assay: Inhibition of [3H]5-HT radioligand binding against 5-hydroxytryptamine 1 receptor
Type: protein assay

smiles_code: c1ccc(N2CCNCC2)cc1
Ki: 149 nM

Batch request: Ki for each of the following molecules.
1. Fc1ccccc1N1CCNCC1
2. CC(C)Oc1ccccc1N1CCNCC1
3. Clc1cccc(N2CCNCC2)c1

Response line:
57.9 nM
19 nM
25 nM

----------
Biological target: D(1A) dopamine receptor (Rattus norvegicus, UniProt P18901)
Sequence (P18901 whole entry): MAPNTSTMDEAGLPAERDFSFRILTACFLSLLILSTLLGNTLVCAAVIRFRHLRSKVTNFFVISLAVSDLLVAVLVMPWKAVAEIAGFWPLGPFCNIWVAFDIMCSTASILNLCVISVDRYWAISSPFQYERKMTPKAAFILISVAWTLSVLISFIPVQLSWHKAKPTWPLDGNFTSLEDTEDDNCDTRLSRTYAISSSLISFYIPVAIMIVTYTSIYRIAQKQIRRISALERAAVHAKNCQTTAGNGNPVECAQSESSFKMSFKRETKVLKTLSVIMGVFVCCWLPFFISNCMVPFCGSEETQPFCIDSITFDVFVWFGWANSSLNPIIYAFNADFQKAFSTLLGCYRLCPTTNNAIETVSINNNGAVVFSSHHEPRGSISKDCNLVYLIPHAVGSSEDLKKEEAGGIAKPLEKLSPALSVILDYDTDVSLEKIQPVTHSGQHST
Experiment: Binding affinity at rat Dopamine receptor D1 by [3H]SCH-23390 displacement.
measure_name: Ki

Solved entries (count: 5):
smiles_code: Oc1ccccc1N1CCNCC1
Ki: > 1000 nM
--
smiles_code: CCCc1ccccc1N1CCNCC1
Ki: > 1000 nM
--
smiles_code: Fc1cccc(N2CCNCC2)c1
Ki: > 1000 nM
--
smiles_code: CCCCOc1ccccc1N1CCNCC1
Ki: > 1000 nM
--
smiles_code: Fc1ccccc1N1CCNCC1
Ki: > 1000 nM

List reported Ki for each of these compounds:
1. N#Cc1ccccc1N1CCNCC1
2. CCOc1ccccc1N1CCNCC1
3. Clc1cccc(N2CCNCC2)c1
4. CCc1ccccc1N1CCNCC1
5. CCCCc1ccccc1N1CCNCC1
6. Cc1ccccc1N1CCNCC1

Response line:
1. > 1000 nM
2. > 1000 nM
3. > 1000 nM
4. > 1000 nM
5. > 1000 nM
6. > 1000 nM

----------
Consider the following compounds; for each one, report its Ki.
Biological target: 5-hydroxytryptamine receptor 1A (Rattus norvegicus, UniProt P19327)
Sequence (P19327 whole entry): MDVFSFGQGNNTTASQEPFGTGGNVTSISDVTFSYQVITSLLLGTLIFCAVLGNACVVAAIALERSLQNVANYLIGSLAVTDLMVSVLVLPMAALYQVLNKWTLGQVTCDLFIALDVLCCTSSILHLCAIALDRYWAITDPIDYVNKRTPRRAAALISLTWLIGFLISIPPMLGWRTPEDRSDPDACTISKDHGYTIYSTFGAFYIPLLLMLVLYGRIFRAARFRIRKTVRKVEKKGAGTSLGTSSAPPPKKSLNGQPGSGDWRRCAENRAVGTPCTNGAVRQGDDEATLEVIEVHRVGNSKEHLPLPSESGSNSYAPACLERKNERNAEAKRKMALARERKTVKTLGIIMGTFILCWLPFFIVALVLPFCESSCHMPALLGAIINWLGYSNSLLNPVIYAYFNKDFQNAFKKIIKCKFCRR
Give bare numbers, in nM.

The following compounds have reported results that may help.
smiles_code: N#Cc1ccccc1N1CCNCC1
Ki [nM]: 25.5
//
smiles_code: CCc1ccccc1N1CCNCC1
Ki [nM]: 22.7
//
smiles_code: CCCCOc1ccccc1N1CCNCC1
Ki [nM]: 11.1
//
smiles_code: CCCCc1ccccc1N1CCNCC1
Ki [nM]: 19.1
//
smiles_code: COc1ccccc1N1CCNCC1
Ki [nM]: 9.5
//
smiles_code: Clc1ccccc1N1CCNCC1
Ki [nM]: 19.5
//
smiles_code: Clc1cccc(N2CCNCC2)c1
Ki [nM]: 23
//
smiles_code: CCCc1ccccc1N1CCNCC1
Ki [nM]: 19.4
//
smiles_code: Cc1ccccc1N1CCNCC1
Ki [nM]: 27.4
//
smiles_code: Fc1cccc(N2CCNCC2)c1
Ki [nM]: 114

Hi team, please reply with Ki for each item in this list.
1. CC(C)Oc1ccccc1N1CCNCC1
2. Fc1ccccc1N1CCNCC1
3. CCOc1ccccc1N1CCNCC1

Response line:
[7.6, 43, 9.1]

Prompt line: Please look up its Ki: "CC(C)c1ccccc1N1CCNCC1"
Response line: 12.5
